Where do these numbers come from? They come from paper PMC11345841.

# targetSystem: LTK (Homo sapiens, UniProt P29376)
# Construct: purchased Eurofins DiscoverX KINOMEscan (scanTK)
# Sequence (P29376 17-864): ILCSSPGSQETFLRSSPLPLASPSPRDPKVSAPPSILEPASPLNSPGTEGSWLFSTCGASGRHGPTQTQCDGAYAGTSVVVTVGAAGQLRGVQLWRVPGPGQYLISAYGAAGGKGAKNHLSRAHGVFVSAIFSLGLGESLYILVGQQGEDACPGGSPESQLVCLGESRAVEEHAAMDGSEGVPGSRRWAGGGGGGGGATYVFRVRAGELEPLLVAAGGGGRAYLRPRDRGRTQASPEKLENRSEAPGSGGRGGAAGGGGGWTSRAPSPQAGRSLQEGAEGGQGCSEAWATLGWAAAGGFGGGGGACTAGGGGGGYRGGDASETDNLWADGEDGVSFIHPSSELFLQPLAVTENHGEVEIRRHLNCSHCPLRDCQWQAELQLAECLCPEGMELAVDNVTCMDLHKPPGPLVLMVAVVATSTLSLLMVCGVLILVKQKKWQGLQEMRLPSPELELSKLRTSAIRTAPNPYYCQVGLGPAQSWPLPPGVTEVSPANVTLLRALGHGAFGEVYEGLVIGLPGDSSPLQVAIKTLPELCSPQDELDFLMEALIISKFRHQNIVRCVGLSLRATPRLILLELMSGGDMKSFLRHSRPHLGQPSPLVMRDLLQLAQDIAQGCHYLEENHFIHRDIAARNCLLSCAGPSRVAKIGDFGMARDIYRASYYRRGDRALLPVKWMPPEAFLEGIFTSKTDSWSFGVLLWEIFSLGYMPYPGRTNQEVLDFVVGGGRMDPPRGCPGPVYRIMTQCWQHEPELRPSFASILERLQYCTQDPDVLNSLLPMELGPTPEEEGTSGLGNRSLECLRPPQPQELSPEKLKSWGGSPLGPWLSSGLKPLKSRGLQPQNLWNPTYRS
# procedureSummary: KINOMEscan ScanTK
# Assay type: binding
# testParameters: read-out: %Control @1000nM
reportedProperty: remaining binding at 1 µM (%)
Output spec: scalar in %, unitless text.

// solved cases for remaining binding at 1 µM follow
* CCOC(=O)c1cnc(S(C)(=O)=O)nc1N1CCC[C@@H](n2nc(-c3ccc(Oc4ccccc4)cc3)c3c(N)ncnc32)C1 [Compound 8c] | 100
* CNC(=O)c1cnc(S(C)(=O)=O)nc1N1CCCC(n2nc(-c3ccc(Oc4ccccc4)cc3)c3c(N)ncnc32)C1 (centres unmarked) [Compound 8d] | 100
* C=CC(=O)N1CCC[C@@H](n2nc(-c3ccc(Oc4ccccc4)cc3)c3c(N)ncnc32)C1 [Compound 1g, Ibrutinib, reference compound] | 81
* COC(=O)c1cnc(S(C)(=O)=O)nc1N1CCCC(n2nc(-c3ccc(Oc4ccccc4)cc3)c3c(N)ncnc32)C1 (centres unmarked) [Compound 8b] | 94

// switching to the query compound
Qu. Quick check: remaining binding at 1 µM of Cc1cnc(S(C)(=O)=O)nc1N1CCCC(n2nc(-c3ccc(Oc4ccccc4)cc3)c3c(N)ncnc32)C1 (centres unmarked) [Compound 8a] ?
Ans. 93

* * *

# targetSystem: PDGFRA (Homo sapiens, UniProt P16234)
# Construct: purchased Eurofins DiscoverX KINOMEscan (scanTK)
# Sequence (P16234 24-1089): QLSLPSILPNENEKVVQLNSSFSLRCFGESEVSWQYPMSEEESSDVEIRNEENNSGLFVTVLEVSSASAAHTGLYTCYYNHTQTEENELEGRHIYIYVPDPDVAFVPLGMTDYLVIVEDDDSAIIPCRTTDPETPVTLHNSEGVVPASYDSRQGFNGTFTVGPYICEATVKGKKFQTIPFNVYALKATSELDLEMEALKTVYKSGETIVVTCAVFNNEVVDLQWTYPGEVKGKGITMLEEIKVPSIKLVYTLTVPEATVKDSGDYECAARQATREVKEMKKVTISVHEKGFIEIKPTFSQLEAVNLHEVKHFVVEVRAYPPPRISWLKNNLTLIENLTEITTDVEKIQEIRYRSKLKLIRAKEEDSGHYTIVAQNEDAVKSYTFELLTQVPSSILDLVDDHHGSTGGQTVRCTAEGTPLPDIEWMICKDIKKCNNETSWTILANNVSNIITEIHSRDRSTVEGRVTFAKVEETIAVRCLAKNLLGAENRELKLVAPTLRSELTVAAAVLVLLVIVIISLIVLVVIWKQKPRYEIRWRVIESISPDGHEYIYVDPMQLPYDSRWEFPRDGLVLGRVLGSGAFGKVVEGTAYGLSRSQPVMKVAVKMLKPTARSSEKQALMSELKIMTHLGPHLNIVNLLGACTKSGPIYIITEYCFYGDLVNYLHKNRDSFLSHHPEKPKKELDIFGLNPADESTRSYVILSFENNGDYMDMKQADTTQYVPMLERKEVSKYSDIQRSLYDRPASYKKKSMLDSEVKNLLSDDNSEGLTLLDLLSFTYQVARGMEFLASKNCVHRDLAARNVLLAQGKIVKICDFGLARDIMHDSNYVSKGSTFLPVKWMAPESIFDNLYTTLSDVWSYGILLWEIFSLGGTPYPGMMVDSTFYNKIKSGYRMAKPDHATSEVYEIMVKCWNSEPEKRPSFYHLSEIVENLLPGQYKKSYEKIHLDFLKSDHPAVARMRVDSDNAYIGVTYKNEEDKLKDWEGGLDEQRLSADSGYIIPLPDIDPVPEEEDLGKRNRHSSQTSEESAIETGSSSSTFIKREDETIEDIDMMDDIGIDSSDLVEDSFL
# procedureSummary: KINOMEscan ScanTK
# Assay type: binding
# testParameters: @1000nM, read-out: %Control
# remaining binding at 1 µM listing for each entry below
Output spec: scalar in %, unitless text.

// solved cases for remaining binding at 1 µM follow
- CCOC(=O)c1cnc(S(C)(=O)=O)nc1N1CCC[C@@H](n2nc(-c3ccc(Oc4ccccc4)cc3)c3c(N)ncnc32)C1: 91
- C=CC(=O)N1CCC[C@@H](n2nc(-c3ccc(Oc4ccccc4)cc3)c3c(N)ncnc32)C1 [Compound 1g, Ibrutinib, reference compound]: 49
- COC(=O)c1cnc(S(C)(=O)=O)nc1N1CCCC(n2nc(-c3ccc(Oc4ccccc4)cc3)c3c(N)ncnc32)C1 (centres unmarked): 90
- Cc1cnc(S(C)(=O)=O)nc1N1CCCC(n2nc(-c3ccc(Oc4ccccc4)cc3)c3c(N)ncnc32)C1 (centres unmarked): 72

// switching to the query compound
Qu. Quick check: remaining binding at 1 µM of CNC(=O)c1cnc(S(C)(=O)=O)nc1N1CCCC(n2nc(-c3ccc(Oc4ccccc4)cc3)c3c(N)ncnc32)C1 (centres unmarked) ?
Ans. 78

* * *

# targetSystem: RET(V804M) (Homo sapiens, UniProt P07949, V804M)
# Construct: purchased Eurofins DiscoverX KINOMEscan (scanTK)
# Sequence (P07949 29-1114 V804M): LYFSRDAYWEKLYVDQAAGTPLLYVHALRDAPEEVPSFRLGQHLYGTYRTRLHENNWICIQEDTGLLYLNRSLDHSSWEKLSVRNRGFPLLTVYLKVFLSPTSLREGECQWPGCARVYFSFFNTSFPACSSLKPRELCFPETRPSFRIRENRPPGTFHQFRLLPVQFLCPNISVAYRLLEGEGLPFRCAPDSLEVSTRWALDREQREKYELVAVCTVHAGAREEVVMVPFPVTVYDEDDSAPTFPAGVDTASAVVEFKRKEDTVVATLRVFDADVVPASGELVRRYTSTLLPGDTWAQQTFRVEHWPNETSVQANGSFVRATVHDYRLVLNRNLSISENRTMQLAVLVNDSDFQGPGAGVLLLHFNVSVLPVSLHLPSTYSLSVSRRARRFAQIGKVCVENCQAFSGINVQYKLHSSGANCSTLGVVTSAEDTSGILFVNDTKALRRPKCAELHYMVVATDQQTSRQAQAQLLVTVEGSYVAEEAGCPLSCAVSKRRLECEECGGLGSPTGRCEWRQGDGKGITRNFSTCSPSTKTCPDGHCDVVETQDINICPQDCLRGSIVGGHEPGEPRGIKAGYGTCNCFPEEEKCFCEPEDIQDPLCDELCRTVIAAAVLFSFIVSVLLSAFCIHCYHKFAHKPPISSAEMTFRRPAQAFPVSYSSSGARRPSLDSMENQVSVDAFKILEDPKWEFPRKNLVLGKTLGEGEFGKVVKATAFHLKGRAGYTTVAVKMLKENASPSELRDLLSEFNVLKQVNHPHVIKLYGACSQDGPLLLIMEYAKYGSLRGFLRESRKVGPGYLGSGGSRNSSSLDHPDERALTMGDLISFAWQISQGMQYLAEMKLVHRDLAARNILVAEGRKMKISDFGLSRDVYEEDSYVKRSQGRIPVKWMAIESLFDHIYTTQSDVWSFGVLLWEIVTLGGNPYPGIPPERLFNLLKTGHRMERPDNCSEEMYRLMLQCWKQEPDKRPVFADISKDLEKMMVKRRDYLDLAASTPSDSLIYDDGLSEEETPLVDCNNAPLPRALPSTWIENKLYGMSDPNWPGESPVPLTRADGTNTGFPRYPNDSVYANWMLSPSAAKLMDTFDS
# procedureSummary: KINOMEscan ScanTK
# Format: binding
# testParameters: @1000nM, read-out: %Control
# remaining binding at 1 µM listing for each entry below
Numeric answer plus unit only.

- Cc1cnc(S(C)(=O)=O)nc1N1CCCC(n2nc(-c3ccc(Oc4ccccc4)cc3)c3c(N)ncnc32)C1 (centres unmarked) [Compound 8a]: 93%
- CCOC(=O)c1cnc(S(C)(=O)=O)nc1N1CCC[C@@H](n2nc(-c3ccc(Oc4ccccc4)cc3)c3c(N)ncnc32)C1 [Compound 8c]: 100%
- CNC(=O)c1cnc(S(C)(=O)=O)nc1N1CCCC(n2nc(-c3ccc(Oc4ccccc4)cc3)c3c(N)ncnc32)C1 (centres unmarked) [Compound 8d]: 100%
- COC(=O)c1cnc(S(C)(=O)=O)nc1N1CCCC(n2nc(-c3ccc(Oc4ccccc4)cc3)c3c(N)ncnc32)C1 (centres unmarked) [Compound 8b]: 90%

// switching to the query molecule
Qu. Quick check: remaining binding at 1 µM of C=CC(=O)N1CCC[C@@H](n2nc(-c3ccc(Oc4ccccc4)cc3)c3c(N)ncnc32)C1 [Compound 1g, Ibrutinib, reference compound] ?
Ans. 100%

* * *

# targetSystem: AXL (Homo sapiens, UniProt P30530)
# Construct: purchased Eurofins DiscoverX KINOMEscan (scanTK)
# procedureSummary: KINOMEscan ScanTK
# Format: binding
# testParameters: read-out: %Control @1000nM
# remaining binding at 1 µM listing for each entry below
Output spec: scalar in %, unitless text.

// solved cases for remaining binding at 1 µM follow
• Cc1cnc(S(C)(=O)=O)nc1N1CCCC(n2nc(-c3ccc(Oc4ccccc4)cc3)c3c(N)ncnc32)C1 (centres unmarked) = 100
• C=CC(=O)N1CCC[C@@H](n2nc(-c3ccc(Oc4ccccc4)cc3)c3c(N)ncnc32)C1 [Compound 1g, Ibrutinib, reference compound] = 75
• CNC(=O)c1cnc(S(C)(=O)=O)nc1N1CCCC(n2nc(-c3ccc(Oc4ccccc4)cc3)c3c(N)ncnc32)C1 (centres unmarked) = 97
• COC(=O)c1cnc(S(C)(=O)=O)nc1N1CCCC(n2nc(-c3ccc(Oc4ccccc4)cc3)c3c(N)ncnc32)C1 (centres unmarked) = 100

// switching to the query compound
Qu. Quick check: remaining binding at 1 µM of CCOC(=O)c1cnc(S(C)(=O)=O)nc1N1CCC[C@@H](n2nc(-c3ccc(Oc4ccccc4)cc3)c3c(N)ncnc32)C1 ?
Ans. 100

* * *

# targetSystem: TRKC (Homo sapiens, UniProt Q16288)
# Construct: purchased Eurofins DiscoverX KINOMEscan (scanTK)
# Sequence (Q16288 32-839): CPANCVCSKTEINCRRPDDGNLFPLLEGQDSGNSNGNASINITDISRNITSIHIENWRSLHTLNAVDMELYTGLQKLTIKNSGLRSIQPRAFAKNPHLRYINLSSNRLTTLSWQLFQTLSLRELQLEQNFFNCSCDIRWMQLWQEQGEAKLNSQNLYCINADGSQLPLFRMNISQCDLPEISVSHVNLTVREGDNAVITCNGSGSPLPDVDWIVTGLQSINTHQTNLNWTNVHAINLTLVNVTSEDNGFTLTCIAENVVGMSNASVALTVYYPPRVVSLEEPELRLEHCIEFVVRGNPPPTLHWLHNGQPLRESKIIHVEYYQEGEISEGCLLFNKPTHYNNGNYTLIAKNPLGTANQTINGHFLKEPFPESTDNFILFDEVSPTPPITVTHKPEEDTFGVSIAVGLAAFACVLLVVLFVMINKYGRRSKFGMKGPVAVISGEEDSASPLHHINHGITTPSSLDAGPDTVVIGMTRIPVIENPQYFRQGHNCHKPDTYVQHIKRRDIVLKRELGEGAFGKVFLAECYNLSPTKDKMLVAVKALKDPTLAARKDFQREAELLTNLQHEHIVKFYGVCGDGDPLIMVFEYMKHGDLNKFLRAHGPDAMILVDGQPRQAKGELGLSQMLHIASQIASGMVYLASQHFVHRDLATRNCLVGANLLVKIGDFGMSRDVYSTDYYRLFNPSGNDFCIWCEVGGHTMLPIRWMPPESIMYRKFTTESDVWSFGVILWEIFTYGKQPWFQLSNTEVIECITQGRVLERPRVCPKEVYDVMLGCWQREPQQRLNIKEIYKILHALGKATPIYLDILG
# procedureSummary: KINOMEscan ScanTK
# Assay type: binding
# testParameters: TRKC; read-out: %Control @1000nM
reportedProperty: remaining binding at 1 µM (%)
Output spec: scalar in %, unitless text.

* COC(=O)c1cnc(S(C)(=O)=O)nc1N1CCCC(n2nc(-c3ccc(Oc4ccccc4)cc3)c3c(N)ncnc32)C1 (stereo not shown) [Compound 8b] | 78
* CCOC(=O)c1cnc(S(C)(=O)=O)nc1N1CCC[C@@H](n2nc(-c3ccc(Oc4ccccc4)cc3)c3c(N)ncnc32)C1 [Compound 8c] | 77
* CNC(=O)c1cnc(S(C)(=O)=O)nc1N1CCCC(n2nc(-c3ccc(Oc4ccccc4)cc3)c3c(N)ncnc32)C1 (stereo not shown) [Compound 8d] | 92

// switching to the query molecule
Qu. Quick check: remaining binding at 1 µM of Cc1cnc(S(C)(=O)=O)nc1N1CCCC(n2nc(-c3ccc(Oc4ccccc4)cc3)c3c(N)ncnc32)C1 (stereo not shown) [Compound 8a] ?
Ans. 78

* * *

# difference in %Control versus compound Ib at 1 µM listing for each entry below
# targetSystem: JAK1(JH1domain-catalytic) (Homo sapiens, UniProt P23458)
# Construct: JAK1(JH1domain-catalytic); purchased Eurofins DiscoverX KINOMEscan (scanTK)
# Sequence (P23458 875-1154 limits assumed): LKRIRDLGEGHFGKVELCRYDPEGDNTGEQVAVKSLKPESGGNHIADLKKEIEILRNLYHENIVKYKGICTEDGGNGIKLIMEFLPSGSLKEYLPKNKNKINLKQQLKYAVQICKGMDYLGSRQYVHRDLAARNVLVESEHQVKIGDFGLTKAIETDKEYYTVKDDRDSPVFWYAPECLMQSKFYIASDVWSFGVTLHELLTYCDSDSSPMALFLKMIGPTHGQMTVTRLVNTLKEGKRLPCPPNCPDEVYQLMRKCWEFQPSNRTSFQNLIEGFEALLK
# procedureSummary: KINOMEscan ScanTK
# Type: binding
# testParameters: @1000nM
Output spec: scalar in %, unitless text.

// solved cases for difference in %Control versus compound Ib at 1 µM follow
* CCOC(=O)c1cnc(S(C)(=O)=O)nc1N1CCC[C@@H](n2nc(-c3ccc(Oc4ccccc4)cc3)c3c(N)ncnc32)C1 | 6
* CNC(=O)c1cnc(S(C)(=O)=O)nc1N1CCCC(n2nc(-c3ccc(Oc4ccccc4)cc3)c3c(N)ncnc32)C1 (stereo not shown) | 6
* Cc1cnc(S(C)(=O)=O)nc1N1CCCC(n2nc(-c3ccc(Oc4ccccc4)cc3)c3c(N)ncnc32)C1 (stereo not shown) | 0

// switching to the query compound
Qu. Quick check: difference in %Control versus compound Ib at 1 µM of COC(=O)c1cnc(S(C)(=O)=O)nc1N1CCCC(n2nc(-c3ccc(Oc4ccccc4)cc3)c3c(N)ncnc32)C1 (stereo not shown) ?
Ans. 3

* * *

# remaining binding at 1 µM listing for each entry below
# targetSystem: TRKB (Homo sapiens, UniProt Q16620)
# Construct: purchased Eurofins DiscoverX KINOMEscan (scanTK)
# procedureSummary: KINOMEscan ScanTK
# Type: binding
# testParameters: TRKB; read-out: %Control @1000nM
Output spec: scalar in %, unitless text.

• CNC(=O)c1cnc(S(C)(=O)=O)nc1N1CCCC(n2nc(-c3ccc(Oc4ccccc4)cc3)c3c(N)ncnc32)C1 (stereo not shown) = 87
• CCOC(=O)c1cnc(S(C)(=O)=O)nc1N1CCC[C@@H](n2nc(-c3ccc(Oc4ccccc4)cc3)c3c(N)ncnc32)C1 = 77
• Cc1cnc(S(C)(=O)=O)nc1N1CCCC(n2nc(-c3ccc(Oc4ccccc4)cc3)c3c(N)ncnc32)C1 (stereo not shown) = 75

// switching to the query compound
Qu. Quick check: remaining binding at 1 µM of COC(=O)c1cnc(S(C)(=O)=O)nc1N1CCCC(n2nc(-c3ccc(Oc4ccccc4)cc3)c3c(N)ncnc32)C1 (stereo not shown) ?
Ans. 99

* * *

# remaining binding at 1 µM listing for each entry below
# targetSystem: KIT(V559D) (Homo sapiens, UniProt P10721, V559D)
# Construct: purchased Eurofins DiscoverX KINOMEscan (scanTK)
# Sequence (P10721 26-976 V559D): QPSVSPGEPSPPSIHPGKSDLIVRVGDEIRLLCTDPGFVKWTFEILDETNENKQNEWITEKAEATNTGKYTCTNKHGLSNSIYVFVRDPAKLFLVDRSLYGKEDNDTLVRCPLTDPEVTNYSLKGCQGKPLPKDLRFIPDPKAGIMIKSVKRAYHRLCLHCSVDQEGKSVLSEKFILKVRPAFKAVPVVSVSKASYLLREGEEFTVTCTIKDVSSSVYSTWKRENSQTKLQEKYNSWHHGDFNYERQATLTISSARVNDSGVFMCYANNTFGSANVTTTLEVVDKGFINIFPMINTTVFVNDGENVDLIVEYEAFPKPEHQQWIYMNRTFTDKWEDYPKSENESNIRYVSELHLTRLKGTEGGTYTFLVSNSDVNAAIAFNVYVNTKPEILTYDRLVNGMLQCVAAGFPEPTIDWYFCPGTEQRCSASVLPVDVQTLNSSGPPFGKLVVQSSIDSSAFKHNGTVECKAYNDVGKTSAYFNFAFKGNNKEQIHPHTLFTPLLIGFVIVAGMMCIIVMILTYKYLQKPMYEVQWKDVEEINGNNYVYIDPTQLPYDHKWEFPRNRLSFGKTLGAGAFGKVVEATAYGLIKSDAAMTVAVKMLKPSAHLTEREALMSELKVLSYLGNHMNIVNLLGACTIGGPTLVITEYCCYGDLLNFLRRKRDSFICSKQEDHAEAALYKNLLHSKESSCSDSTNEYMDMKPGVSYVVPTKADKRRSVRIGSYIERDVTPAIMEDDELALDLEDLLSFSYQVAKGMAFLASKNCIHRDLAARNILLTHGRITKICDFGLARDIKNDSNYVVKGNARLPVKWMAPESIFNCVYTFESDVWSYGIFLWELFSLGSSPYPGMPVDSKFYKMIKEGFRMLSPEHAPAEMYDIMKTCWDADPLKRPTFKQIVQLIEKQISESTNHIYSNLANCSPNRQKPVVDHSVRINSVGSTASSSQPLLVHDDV
# procedureSummary: KINOMEscan ScanTK
# Assay type: binding
# testParameters: read-out: %Control @1000nM
Output spec: scalar in %, unitless text.

- C=CC(=O)N1CCC[C@@H](n2nc(-c3ccc(Oc4ccccc4)cc3)c3c(N)ncnc32)C1 [Compound 1g, Ibrutinib, reference compound]: 27
- COC(=O)c1cnc(S(C)(=O)=O)nc1N1CCCC(n2nc(-c3ccc(Oc4ccccc4)cc3)c3c(N)ncnc32)C1 (centres unmarked): 75

Qu. Quick check: remaining binding at 1 µM of CCOC(=O)c1cnc(S(C)(=O)=O)nc1N1CCC[C@@H](n2nc(-c3ccc(Oc4ccccc4)cc3)c3c(N)ncnc32)C1 ?
Ans. 70

Qu. Quick check: remaining binding at 1 µM of CNC(=O)c1cnc(S(C)(=O)=O)nc1N1CCCC(n2nc(-c3ccc(Oc4ccccc4)cc3)c3c(N)ncnc32)C1 (centres unmarked) ?
Ans. 60

Qu. Quick check: remaining binding at 1 µM of Cc1cnc(S(C)(=O)=O)nc1N1CCCC(n2nc(-c3ccc(Oc4ccccc4)cc3)c3c(N)ncnc32)C1 (centres unmarked) ?
Ans. 37
